Biological target: HLA-B*08:01 (Homo sapiens)
Experiment: MHC binding assay (UV-ligand exchange, beta2m ELISA)
Details: MHC class I binding score; binding to HLA-B*08:01 ranged by peptide exchange yield (UV-ligand exchange, β2m ELISA)
measured metric: Peptide exchange

Record excerpt, results attached:
# substance, Peptide exchange
records = [
    ("80 (EVYLRMYQL; listed as Homo sapiens) [compound 80]", "+++ (50% = +++)"),
    ("86 (RPIHHPLVL; listed as Homo sapiens) [compound 86]", "++ (20% = ++)"),
    ("185 (MELKTVKPI; listed as Homo sapiens) [compound 185]", "++ (20% = ++)"),
    ("187 (VPYNSVLF; listed as Homo sapiens) [compound 187]", "++ (20% = ++)"),
    ("116 (FTQNPRVQL; listed as Homo sapiens) [compound 116]", "++ (20% = ++)"),
    ("101 (FAFEKLIQF; listed as Homo sapiens) [compound 101]", "+++ (50% = +++)"),
]

Entry 111 (GAGLRITAPL; listed as Homo sapiens) [compound 111] , Peptide exchange reported as ++ (20% = ++)

Entry 95 (SRNPRGFFL; listed as Homo sapiens) [compound 95] , Peptide exchange reported as ++ (20% = ++)

Entry 78 (DGHMKVFSL; listed as Homo sapiens) [compound 78] , Peptide exchange reported as ++ (20% = ++)

* * *

Molecular target: HLA-B*08:01 (Homo sapiens, UniProt P01889)
Experiment: MHC binding assay (UV-ligand exchange, beta2m ELISA)
Settings: MHC class I binding score; binding to HLA-B*08:01 ranged by peptide exchange yield (UV-ligand exchange, β2m ELISA)
measured metric: Peptide exchange

# substance, Peptide exchange
measured = [
    ("163 (EVMAQFKEI; listed as Homo sapiens) [compound 163]", "++ (20% = ++)"),
    ("236 (STLKKSLEI; listed as Homo sapiens) [compound 236]", "++ (20% = ++)"),
    ("97 (EPVTKAEM; listed as Homo sapiens) [compound 97]", "+++ (50% = +++)"),
    ("99 (NVKIRFLE; listed as Homo sapiens) [compound 99]", "++ (20% = ++)"),
    ("220 (LAVRHLSL; listed as Homo sapiens) [compound 220]", "++ (20% = ++)"),
    ("195 (EGNQKSVI; listed as Homo sapiens) [compound 195]", "++ (20% = ++)"),
]

Entry 217 (ETIKGHSVRL; listed as Homo sapiens) [compound 217] , Peptide exchange reported as ++ (20% = ++)

Entry 79 (GLARIYSF; listed as Homo sapiens) [compound 79] , Peptide exchange reported as ++ (20% = ++)

Entry 108 (RSYYHPTNL; listed as Homo sapiens) [compound 108] , Peptide exchange reported as ++ (20% = ++)

Entry 19 (FTLLRRLSL; listed as Homo sapiens) [compound 19] , Peptide exchange reported as +++ (50% = +++)

* * *

Molecular target: HLA-B*08:01 (Homo sapiens, UniProt P01889)
Assay: MHC binding assay (UV-ligand exchange, beta2m ELISA)
Conditions: MHC class I binding score; binding to HLA-B*08:01 ranged by peptide exchange yield (UV-ligand exchange, β2m ELISA)
measured metric: Peptide exchange

Record excerpt, results attached:
# substance, reported value
records = [
    ("176 (YVIQRQSVL; listed as Homo sapiens) [compound 176]", "++ (20% = ++)"),
    ("222 (AQKAELIAL; listed as Homo sapiens) [compound 222]", "++ (20% = ++)"),
    ("174 (HAMPSPRIL; listed as Homo sapiens) [compound 174]", "++ (20% = ++)"),
    ("61 (SIKKELVVL; listed as Homo sapiens) [compound 61]", "++ (20% = ++)"),
    ("154 (VLKTLQEL; listed as Homo sapiens) [compound 154]", "++ (20% = ++)"),
]

Entry 45 (RLKVALSTL; listed as Homo sapiens) [compound 45] , Peptide exchange reported as +++ (50% = +++)

Entry 218 (DNHPRLVTL; listed as Homo sapiens) [compound 218] , Peptide exchange reported as +++ (50% = +++)

Entry 10 (MGKFKQCF; listed as Homo sapiens) [compound 10] , Peptide exchange reported as +++ (50% = +++)

Entry 93 (LMKEKIQEM; listed as Homo sapiens) [compound 93] , Peptide exchange reported as +++ (50% = +++)

Entry 35 (ELFQRPVL; listed as Homo sapiens) [compound 35] , Peptide exchange reported as ++ (20% = ++)

Entry 74 (RLKLRYEGL; listed as Homo sapiens) [compound 74] , Peptide exchange reported as +++ (50% = +++)

Entry 247 (TPEPSVHAL; listed as Homo sapiens) [compound 247] , Peptide exchange reported as ++ (20% = ++)

* * *

Molecular target: HLA-B*08:01 (Homo sapiens, UniProt P01889)
Assay: MHC binding assay (UV-ligand exchange, beta2m ELISA)
Settings: MHC class I binding score; binding to HLA-B*08:01 ranged by peptide exchange yield (UV-ligand exchange, β2m ELISA)
measured metric: Peptide exchange

Record excerpt, results attached:
# substance, assay system, Peptide exchange
data = [
    ("249 (QQIDRVVEV; listed as Homo sapiens) [compound 249]", "HLA-B*08:01 (Homo sapiens, UniProt P01889)", "++ (20% = ++)"),
    ("192 (EEKHFTTL; listed as Homo sapiens) [compound 192]", "HLA-B*08:01 (Homo sapiens, UniProt P01889)", "++ (20% = ++)"),
    ("118 (MAFVKHLL; listed as Homo sapiens) [compound 118]", "HLA-B*08:01 (Homo sapiens, UniProt P01889)", "+++ (50% = +++)"),
    ("149 (TQKSVQVL; listed as Homo sapiens) [compound 149]", "HLA-B*08:01 (Homo sapiens, UniProt P01889)", "++ (20% = ++)"),
    ("198 (FPLTSIIAI; listed as Homo sapiens) [compound 198]", "HLA-B*08:01 (Homo sapiens, UniProt P01889)", "+++ (50% = +++)"),
]

Entry 144 (IEQIRAVL; listed as Homo sapiens) [compound 144] , Peptide exchange reported as ++ (20% = ++)

Entry 21 (RILKRFLAC; listed as Homo sapiens) [compound 21] , Peptide exchange reported as +++ (50% = +++)

Entry 208 (LPPPQPLSL; listed as Homo sapiens) [compound 208] , Peptide exchange reported as ++ (20% = ++)

Entry 191 (RPLKPGEVL; listed as Homo sapiens) [compound 191] , Peptide exchange reported as ++ (20% = ++)

* * *

Molecular target: HLA-B*08:01 (Homo sapiens, UniProt P01889)
Test: MHC binding assay (UV-ligand exchange, beta2m ELISA)
Conditions: MHC class I binding score; binding to HLA-B*08:01 ranged by peptide exchange yield (UV-ligand exchange, β2m ELISA)
measured metric: Peptide exchange

Record excerpt, results attached:
# substance, measured metric, reported value
records = [
    ("199 (IPFIHLPEI; listed as Homo sapiens) [compound 199]", "Peptide exchange", "++ (20% = ++)"),
    ("166 (VLSGGRILAL; listed as Homo sapiens) [compound 166]", "Peptide exchange", "++ (20% = ++)"),
    ("200 (VAAARAVPV; listed as Homo sapiens) [compound 200]", "Peptide exchange", "++ (20% = ++)"),
    ("12 (DFYLRSSAF; listed as Homo sapiens) [compound 12]", "Peptide exchange", "+++ (50% = +++)"),
    ("89 (VPYTKVQL; listed as Homo sapiens) [compound 89]", "Peptide exchange", "+++ (50% = +++)"),
    ("221 (SLKEELLSL; listed as Homo sapiens) [compound 221]", "Peptide exchange", "+++ (50% = +++)"),
]

Short answer on HLA-B*08:01 (Homo sapiens, UniProt P01889) for 32 (NPYLKLVL; listed as Homo sapiens) [compound 32] , Peptide exchange: ++ (20% = ++)

Short answer on HLA-B*08:01 (Homo sapiens, UniProt P01889) for 98 (EPVNTNVVL; listed as Homo sapiens) [compound 98] , Peptide exchange: ++ (20% = ++)

* * *

Molecular target: HLA-B*08:01 (Homo sapiens, UniProt P01889)
Experiment: MHC binding assay (UV-ligand exchange, beta2m ELISA)
Conditions: MHC class I binding score; binding to HLA-B*08:01 ranged by peptide exchange yield (UV-ligand exchange, β2m ELISA)
measured metric: Peptide exchange

# substance, Peptide exchange
data = [
    ("219 (VRNPKILIL; listed as Homo sapiens) [compound 219]", "++ (20% = ++)"),
    ("155 (LPASFPAVL; listed as Homo sapiens) [compound 155]", "++ (20% = ++)"),
    ("183 (YVSKPGAQL; listed as Homo sapiens) [compound 183]", "++ (20% = ++)"),
    ("239 (SEPVMRVTL; listed as Homo sapiens) [compound 239]", "++ (20% = ++)"),
    ("237 (LPLDSRYVTL; listed as Homo sapiens) [compound 237]", "+++ (50% = +++)"),
]

Entry 9 (LLKGKPRAL; listed as Homo sapiens) [compound 9] , Peptide exchange reported as ++ (20% = ++)

Entry 28 (DPKSRLKSL; listed as Homo sapiens) [compound 28] , Peptide exchange reported as ++ (20% = ++)

Entry 196 (LDLRQKVL; listed as Homo sapiens) [compound 196] , Peptide exchange reported as ++ (20% = ++)

Entry 127 (EPVIRTVSI; listed as Homo sapiens) [compound 127] , Peptide exchange reported as +++ (50% = +++)

Measured values drawn from patent US11433099B2 for this set.
